# TGI per record follows
# System: LOX IMVI melanoma
# ASSAY PROCEDURE: NCI tumour cell line growth inhibition, 48 h

>  <COMPOUND>
CN(C)Cc1cc(C(=O)/C=C/c2ccc(Cl)cc2)cc(CN(C)C)c1O

>  <TGI>
15.3 µM

$$$$
>  <COMPOUND>
Cn1cc(C2=C(c3ccc4ccccc4c3)C(=O)NC2=O)c2ccccc21

>  <TGI>
> 25 µM

$$$$
>  <COMPOUND>
COc1ccc2nc3ccc(OC)cc3c(S(=O)CCCl)c2c1 (stereo unspecified)

>  <TGI>
6.81 µM

$$$$
>  <COMPOUND>
C=C(C)[C@@]12OC3(/C=C/C=C/CCCCC)O[C@@H]1[C@@H]1[C@@H]4O[C@]4(CO)[C@@H](O)[C@]4(O)C(=O)C(C)=C[C@H]4[C@@]1(O3)[C@H](C)[C@H]2OC(=O)c1ccccc1

>  <TGI>
2.29 µM

$$$$
>  <COMPOUND>
O=NN(CCCl)C(=O)NC1CCSc2ccccc21 (stereo unspecified)

>  <TGI>
> 100 µM

$$$$
>  <COMPOUND>
O=C(OC(=O)n1ccc2ccccc21)n1ccc2ccccc21

>  <TGI>
> 100 µM

$$$$
>  <COMPOUND>
C#Cc1cccc(Nc2ncnc3cc(OC)c(OCCCCCCC(=O)NO)cc23)c1

>  <TGI>
1.81 µM

$$$$
>  <COMPOUND>
Oc1[nH]c2ccccc2c1N=Nc1ccccc1Cl

>  <TGI>
> 100 µM

$$$$
>  <COMPOUND>
C[C@@H]1C[C@H]2[C@@H]3CCC4=CC(=O)C=C[C@]4(C)[C@@]3(Cl)[C@@H](Cl)C[C@]2(C)[C@@]1(O)C(=O)COP(=O)(O)O

>  <TGI>
> 100 µM

$$$$
>  <COMPOUND>
CNC(=S)NC1CCCCC1NC(=S)NC (stereo unspecified)

>  <TGI>
> 100 µM

$$$$
>  <COMPOUND>
CC(C)(C)OC(=O)NCC(O)CNC(=O)OC(C)(C)C

>  <TGI>
> 100 µM

$$$$
